# Test system: EPHB2 kinase domain
# method.summary: pTyr-Var library bacterial peptide display kinase screen (enrichment scores);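 note: log2 fold change in enrichment of variant over reference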
# Format: biochemical, human
# settings: sheet EPHB2; effect of variant peptide relative to its reference peptide in the pTyr-Var library screen (enrichment scores)
The following sequences are listed with their measured Screen values.
No unit in the answer, please; the number alone is enough.

Sample records with Screen:
Suppose we examine the sequence PFTRNYFVWAV [CYBA_Y87_R90W_YF] ; what Screen value has been reported? 2.204

Suppose we examine the sequence FCRHNYGVGES [HLA-DRB1_Y112_V115G_YF] ; what Screen value has been reported? -2.304

Suppose we examine the sequence HLVLNYGVCFC [JAK2_Y613_V617F] ; what Screen value has been reported? 0.8396

Others:
Suppose we examine the sequence GQLIVYAPPEW [CNTN6_Y315_F314V] ; what Screen value has been reported? -0.7681

Suppose we examine the sequence KQQEIYQEVTQ [CD209_Y239_L242V] ; what Screen value has been reported? 0.564

Suppose we examine the sequence VDTGVYAVPPP [BCAR1_Y410_S407T] ; what Screen value has been reported? 0.0652

###

The following sequences are listed with their measured Screen values.
# Test system: Fer kinase domain
# method.summary: pTyr-Var library bacterial peptide display kinase screen (enrichment scores);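 note: log2 fold change in enrichment of variant over reference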
# Assay type: biochemical, mouse
# settings: sheet "Fer"; value of the variant peptide against its reference peptide in the pTyr-Var library screen with Fer
No unit in the answer, please; the number alone is enough.

Can you look up Screen on Fer kinase domain for KQQEIYQEVTQ [CD209_Y239_L242V] ? 1.048

Can you look up Screen on Fer kinase domain for VQEDIYDEFVV [ALDH2_Y332_E337V] ? 3.107

Can you look up Screen on Fer kinase domain for LNGDRYFKGIV [DCX_Y64_R59L] ? 2.021

Can you look up Screen on Fer kinase domain for FRSSLYSLMET [MYO5C_Y633_L634S] ? 3.791

Can you look up Screen on Fer kinase domain for PADQAYSWFQH [NDST1_Y711_R709Q_YF] ? 0.5054

Can you look up Screen on Fer kinase domain for QDLLLYQTHSE [PKHD1_Y255_F253L] ? 1.348

Can you look up Screen on Fer kinase domain for HNMPIYEGFAL [ACTA1_Y168_V165M_YF] ? 0.2696

Can you look up Screen on Fer kinase domain for GMTLSYLFWEP [NDUFS8_Y74_R77W] ? 3.343

Can you look up Screen on Fer kinase domain for EALDFYGEVRI [PTEN_Y155_T160I] ? 1.122

###

# system.tested: c-Src kinase domain (Homo sapiens, UniProt P12931)
# method.summary: pTyr-Var library bacterial peptide display kinase screen (enrichment scores);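 note: log2 fold change in enrichment of variant over reference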
# Type: biochemical
# settings: sheet "Src"; variant peptide versus its reference peptide in the pTyr-Var library screen
Where Screen equals or exceeds 0.05, the correct label is yes (1); where it does not, the label is no (0).

Worked examples, 4 sequences total:
Is Screen at least 0.05? Consider DFFDLYGGQKF [PTPN11_Y66_E69Q_YF] yes (1)

Is Screen at least 0.05? Consider PRDGEYFTLQI [TP53_Y327_L323R] no (0)

Is Screen at least 0.05? Consider PADQAYSWFQH [NDST1_Y711_R709Q_YF] yes (1)

Is Screen at least 0.05? Consider QDLLLYQTHSE [PKHD1_Y255_F253L] yes (1)

Others:
Is Screen at least 0.05? Consider AGARMYGVLPW [PLP1_Y207_D203G] no (0)

Is Screen at least 0.05? Consider GLTSTYVGIRK [ROBO1_Y932_A933V] no (0)

Is Screen at least 0.05? Consider LHQSTYQCFDV [SLC7A14_Y693_R695C_YF] yes (1)

Is Screen at least 0.05? Consider LFMGDYVGRGF [PPP2CA_Y86_D88G_YF] yes (1)

Is Screen at least 0.05? Consider ISSLLYELLEE [TRPC6_Y896_R895L] yes (1)

Is Screen at least 0.05? Consider EDKFMYLEFPQ [PTEN_Y240_F241L] no (0)

Is Screen at least 0.05? Consider LPEHPYHSRPR [NDUFA8_Y142_N140H] no (0)

Is Screen at least 0.05? Consider LINSVYGCSRQ [TMPRSS6_Y290_T287N] yes (1)

Is Screen at least 0.05? Consider LWQSIYNLDAE [TNNT2_Y251_E254D] no (0)
